# ASSAY TARGET: CCR5 (Homo sapiens)
# Sequence (P51681 whole entry): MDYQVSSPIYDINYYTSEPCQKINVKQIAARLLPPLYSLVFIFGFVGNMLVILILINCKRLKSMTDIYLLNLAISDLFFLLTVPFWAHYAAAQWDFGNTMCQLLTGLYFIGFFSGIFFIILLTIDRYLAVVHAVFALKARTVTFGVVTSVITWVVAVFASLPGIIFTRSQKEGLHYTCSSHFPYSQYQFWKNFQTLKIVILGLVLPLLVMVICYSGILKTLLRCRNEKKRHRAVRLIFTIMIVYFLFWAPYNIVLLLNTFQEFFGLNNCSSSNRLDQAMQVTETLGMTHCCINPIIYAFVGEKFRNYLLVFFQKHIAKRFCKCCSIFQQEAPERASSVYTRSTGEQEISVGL
# PROCEDURE SUMMARY: biochemical
Where a SMILES comes first, the peptide text is derived from it.
Hi! Could you tag entries with EC50 below 500 pM as condition met, and those at or above as condition not met? Much appreciated.

Here's what some known entries look like.
* C[C@@H](O)[C@H](NC(=O)[C@H](Cc1ccc(O)cc1)NC(=O)[C@H](CO)NC(=O)[C@H](CO)NC(=O)[C@@H](N)CC(N)=O)C(=O)O [NSSYT] (H-NSSYT-OH) | condition met
* CC[C@H](C)[C@H](NC(=O)[C@@H](N)[C@@H](C)O)C(=O)N[C@@H](CO)C(=O)N[C@@H](Cc1ccc(O)cc1)C(=O)N[C@@H](CCCNC(=N)N)C(=O)O [TISYR] (H-TISYR-OH) | condition met
* N=C(N)NCCC[C@H](NC(=O)[C@H](Cc1ccc(O)cc1)NC(=O)[C@H](CO)NC(=O)[C@H](CO)NC(=O)[C@@H](N)Cc1ccc(O)cc1)C(=O)O [YSSYR] (H-YSSYR-OH) | condition not met

Now look at this entry.
Given the entry N=C(N)NCCC[C@H](NC(=O)[C@H](Cc1ccc(O)cc1)NC(=O)[C@H](CCC(=O)O)NC(=O)[C@H](CO)NC(=O)[C@@H](N)CC(N)=O)C(=O)O [NSEYR] (H-NSEYR-OH) , would its reported EC50 be below 500 pM? condition met

Values compiled from patent US10973906B2.
